- testedSystem: T1, SNTA1, Q13424
- T1 sequence (Q13424 82-180, limits assumed, looked up): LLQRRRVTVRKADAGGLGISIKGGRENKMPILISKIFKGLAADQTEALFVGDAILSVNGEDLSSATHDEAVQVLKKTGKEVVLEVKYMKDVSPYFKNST
- method: holdup assay
- Set-up: key: below the threshold = too weak to quantify, mostly under pKd 3.1 to 4
- testContext: plain residues with an end cap or a label only (N-terminal biotin on a linker: ado-ado)

binder: KPDKQEEFYA [SDC3, O75056]
pKd: below the threshold

binder: NISARRFTLC [FAM167B, Q9BTA0]
pKd: below the threshold

binder: PDSYHRRDFW [U2AF2, P26368]
pKd: below the threshold

binder: LVEEEEPMNL [HDAC7, Q8WUI4]
pKd: below the threshold

binder: KIEDVEITLV [FCHSD2, O94868]
pKd: 3.76
